TGT: human tyrosine kinase 2 (TYK2), recombinant catalytic domain (Homo sapiens (Human))
Sequence (P29597 833-1187): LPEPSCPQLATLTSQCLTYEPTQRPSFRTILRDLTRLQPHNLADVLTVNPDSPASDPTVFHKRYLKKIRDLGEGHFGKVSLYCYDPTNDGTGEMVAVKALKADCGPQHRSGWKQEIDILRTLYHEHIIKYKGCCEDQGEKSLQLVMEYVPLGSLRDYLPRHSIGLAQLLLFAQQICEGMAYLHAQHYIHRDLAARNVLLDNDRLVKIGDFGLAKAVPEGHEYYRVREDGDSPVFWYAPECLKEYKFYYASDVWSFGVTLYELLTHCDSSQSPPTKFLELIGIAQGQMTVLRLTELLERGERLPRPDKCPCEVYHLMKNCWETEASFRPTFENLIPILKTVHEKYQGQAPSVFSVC
TEST_DESCRIPTION: LanthaScreen TR-FRET enzymatic assay, TYK2
TEST_SETTINGS: TR-FRET, 1 mM ATP, GFP-STAT1 substrate; read-out: Inhibitory Activity IC50 TYK2
pIC50: −log10 of the molar value.
VALUE_TYPE: pIC50

Recall the recorded pIC50 for O=C(Nc1cn2c(-c3ccc(CN4CC[C@H](O)C4)cc3)cccc2n1)C1CC1 [Compound 8] with human tyrosine kinase 2 (TYK2), recombinant catalytic domain (Homo sapiens (Human)) and state it.
< 5.30

Recall the recorded pIC50 for Cc1cc(CN2CCS(=O)(=O)CC2)ccc1-c1cccc2nc(NC(=O)C3CC3)cn12 [Compound 12] with human tyrosine kinase 2 (TYK2), recombinant catalytic domain (Homo sapiens (Human)) and state it.
< 5.30

Recall the recorded pIC50 for O=C(Nc1cn2c(-c3ccc(CN4CC[C@@H](O)C4)cc3)cccc2n1)C1CC1 [Compound 9] with human tyrosine kinase 2 (TYK2), recombinant catalytic domain (Homo sapiens (Human)) and state it.
< 5.30

Recall the recorded pIC50 for O=C(Nc1cn2c(-c3ccc(CN4CCS(=O)(=O)CC4)cc3)cccc2n1)C1CC1 [Compound 1] with human tyrosine kinase 2 (TYK2), recombinant catalytic domain (Homo sapiens (Human)) and state it.
5.30 to 6.00

* * *

TEST_DESCRIPTION: Pharmacokinetics in Sprague-Dawley rats (HPLC-MS/MS of plasma)
Assay type: in vivo
TEST_SETTINGS: Sprague-Dawley, plasma; IV, single dose 1.00 mg/kg, rat
Method: The PK parameters of compound 14 were determined in Sprague-Dawley rats (Hubei Provincial Laboratory Animal Research Center) after a single oral (p.o) and intravenous (i.v.) administration using HPLC-MS/MS (Shimadzu LC-20ACXR HPLC coupled with AB Sciex API 4500 Qtrap). A sensitive and specific HPLC-MS/MS method was developed for the determination of the compound in rat plasma. […] Compound 2 was used as an internal standard and monitored by the ion transition at m/z from 427.1 to 357.1. […]
VALUE_TYPE: AUC(0-t)
Express your answer as a number followed by its unit.

Request the reported AUC(0-t) associated with O=C(Nc1cn2c(-c3ccc(CN4CCS(=O)(=O)CC4)cc3F)cccc2n1)C1CC1 [Compound 14]
0.677 µg·h/mL

* * *

TGT: human Janus kinase 1 (JAK1), recombinant catalytic domain (Homo sapiens (Human), UniProt P23458)
Sequence (P23458 866-1154): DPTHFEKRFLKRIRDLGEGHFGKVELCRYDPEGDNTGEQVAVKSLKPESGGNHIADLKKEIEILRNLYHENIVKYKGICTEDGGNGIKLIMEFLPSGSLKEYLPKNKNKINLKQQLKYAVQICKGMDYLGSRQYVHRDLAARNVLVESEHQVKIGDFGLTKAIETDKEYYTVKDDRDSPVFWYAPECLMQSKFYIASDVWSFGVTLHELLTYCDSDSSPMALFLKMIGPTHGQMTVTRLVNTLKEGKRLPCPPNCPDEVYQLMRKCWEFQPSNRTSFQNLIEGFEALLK
TEST_DESCRIPTION: LanthaScreen TR-FRET enzymatic assay, JAK1
TEST_SETTINGS: 1 mM ATP, GFP-STAT1 substrate, read-out: Inhibitory Activity IC50 JAK1
pIC50: −log10 of the molar value.
VALUE_TYPE: pIC50

Request the reported pIC50 associated with O=C(Nc1cn2c(-c3ccc(CN4CCCCC4)cc3)cccc2n1)C1CC1 [Compound 6]
5.30 to 6.00

Request the reported pIC50 associated with O=C(Nc1cn2c(-c3ccc(C(=O)N4CCS(=O)(=O)CC4)cc3)cccc2n1)C1CC1 [Compound 13]
6.00 to 6.30

Request the reported pIC50 associated with N#CCc1ccc(-c2cccc3nc(NC(=O)C4CC4)cn23)c(F)c1 [Compound 16]
≥ 6.30

Request the reported pIC50 associated with Cc1cc(-c2ccc(CN3CCS(=O)(=O)CC3)cc2)n2cc(NC(=O)C3CC3)nc2c1 [Compound 33]
< 5.30

Request the reported pIC50 associated with Nc1cn2c(-c3ccc(CN4CCS(=O)(=O)CC4)cc3)cccc2n1 [Compound 19]
< 5.30

Request the reported pIC50 associated with N#CCc1ccc(-c2cccc3nc(NC(=O)C4CC4)cn23)cc1 [Compound 11]
≥ 6.30

Request the reported pIC50 associated with COc1ccc(-c2cccc3nc(NC(=O)C4CC4)cn23)cc1 [Compound 10]
5.30 to 6.00

Request the reported pIC50 associated with O=C(Nc1cn2c(-c3ccc(CN4CCOCC4)cc3)cccc2n1)C1CC1 [Compound 4]
6.00 to 6.30

Request the reported pIC50 associated with Cc1cc(CN2CCS(=O)(=O)CC2)ccc1-c1cccc2nc(NC(=O)C3CC3)cn12 [Compound 12]
5.30 to 6.00

Request the reported pIC50 associated with O=C(Nc1cn2c(-c3ccc(CN4CCS(=O)(=O)CC4)cc3)c(Cl)ccc2n1)C1CC1 [Compound 34]
< 5.30

Request the reported pIC50 associated with CC1(C)CN(C(=O)c2ccc(-c3cccc4nc(NC(=O)C5CC5)cn34)cc2F)C1 [Compound 24]
≥ 6.30

Request the reported pIC50 associated with CC(C#N)c1ccc(-c2cccc3nc(NC(=O)C4CC4)cn23)cc1 (stereo not drawn) [Compound 27]
6.00 to 6.30

* * *

TEST_DESCRIPTION: Pharmacokinetics in Sprague-Dawley rats (HPLC-MS/MS of plasma)
Format: in vivo
TEST_SETTINGS: Sprague-Dawley, plasma; IV, single dose 1.00 mg/kg, rat
VALUE_TYPE: MRT (h)
Respond numerically; units are h and should not be typed.

Request the reported MRT associated with O=C(Nc1cn2c(-c3ccc(CN4CCS(=O)(=O)CC4)cc3F)cccc2n1)C1CC1 [Compound 14]
1.4

* * *

TGT: human Janus kinase 2 (JAK2), recombinant catalytic domain (Homo sapiens (Human), UniProt O60674)
Sequence (O60674 808-1132): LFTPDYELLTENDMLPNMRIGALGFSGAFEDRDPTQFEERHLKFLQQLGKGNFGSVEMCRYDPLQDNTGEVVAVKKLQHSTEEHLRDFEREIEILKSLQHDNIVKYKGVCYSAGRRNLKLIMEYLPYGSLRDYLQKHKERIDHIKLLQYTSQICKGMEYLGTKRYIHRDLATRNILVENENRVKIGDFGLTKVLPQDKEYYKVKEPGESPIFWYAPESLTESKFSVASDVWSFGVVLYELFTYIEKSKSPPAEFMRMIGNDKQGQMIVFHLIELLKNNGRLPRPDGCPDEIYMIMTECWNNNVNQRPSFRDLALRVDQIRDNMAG
TEST_DESCRIPTION: LanthaScreen TR-FRET enzymatic assay, JAK2
Format: biochemical
TEST_SETTINGS: TR-FRET, 1 mM ATP, GFP-STAT1 substrate; read-out: Inhibitory Activity IC50 JAK2
VALUE_TYPE: IC50

Request the reported IC50 associated with `Cc1cc(-c2ccc(CN3CCS(=O)(=O)CC3)cc2)n2cc(NC(=O)C3CC3)nc2c1`
> 5 µM

Request the reported IC50 associated with `O=C(Nc1cn2c(-c3ccc(C(=O)N4CCS(=O)(=O)CC4)cc3)cccc2n1)C1CC1`
> 5 µM

Request the reported IC50 associated with `O=C(Nc1cn2c(-c3ccc(CN4CCS(=O)(=O)CC4)cc3F)cccc2n1)C1CC1`
1 to 5 µM

Request the reported IC50 associated with `CC1(C)CN(Cc2ccc(-c3cccc4nc(NC(=O)C5CC5)cn34)cc2)C1`
> 5 µM

* * *

TEST_DESCRIPTION: Pharmacokinetics in Sprague-Dawley rats (HPLC-MS/MS of plasma)
Format: in vivo
TEST_SETTINGS: Sprague-Dawley, plasma; IV, single dose 1.00 mg/kg, rat
VALUE_TYPE: half-life
Express your answer as a number followed by its unit.

Request the reported half-life associated with `O=C(Nc1cn2c(-c3ccc(CN4CCS(=O)(=O)CC4)cc3F)cccc2n1)C1CC1`
1.4 h

* * *

TEST_DESCRIPTION: Pharmacokinetics in Sprague-Dawley rats (HPLC-MS/MS of plasma)
Format: in vivo
TEST_SETTINGS: Sprague-Dawley, plasma; PO, single dose 5.00 mg/kg, rat
VALUE_TYPE: AUC(0-t) (ng·h/mL)
Respond numerically; units are ng·h/mL and should not be typed.

Request the reported AUC(0-t) associated with `O=C(Nc1cn2c(-c3ccc(CN4CCS(=O)(=O)CC4)cc3F)cccc2n1)C1CC1`
1590

* * *

Kindly supply the reported pIC50 values for the records listed here.
TGT: human Janus kinase 2 (JAK2), recombinant catalytic domain (Homo sapiens (Human), UniProt O60674)
TEST_DESCRIPTION: LanthaScreen TR-FRET enzymatic assay, JAK2
TEST_SETTINGS: TR-FRET, 1 mM ATP, GFP-STAT1 substrate; read-out: Inhibitory Activity IC50 JAK2
pIC50: −log10 of the molar value.

Request the reported pIC50 associated with `O=C(Nc1cn2c(-c3ccc(CN4CCS(=O)(=O)CC4)cc3)cccc2n1)C1CC1`
5.30 to 6.00

Request the reported pIC50 associated with `N#CCc1ccc(-c2cccc3nc(N)cn23)c(F)c1`
< 5.30

Request the reported pIC50 associated with `O=C(Nc1cn2c(-c3ccc(CN4CCOCC4)cc3)cccc2n1)C1CC1`
< 5.30

Request the reported pIC50 associated with `COc1ccc(-c2cccc3nc(NC(=O)C4CC4)cn23)cc1`
< 5.30

Request the reported pIC50 associated with `O=C(Nc1cn2c(-c3ccc(CN4CCCCC4)cc3)cccc2n1)C1CC1`
< 5.30

Request the reported pIC50 associated with `O=C(Nc1cn2c(-c3cccc(CN4CCS(=O)(=O)CC4)c3)cccc2n1)C1CC1`
< 5.30

Request the reported pIC50 associated with `O=C(Nc1cn2c(-c3ccc(NS(=O)(=O)C4CC4)cc3)cccc2n1)C1CC1`
6.00 to 6.30

Request the reported pIC50 associated with CC(C#N)c1ccc(-c2cccc3nc(NC(=O)C4CC4)cn23)cc1 (centres unmarked)
< 5.30

Request the reported pIC50 associated with `CN1CCN(Cc2ccc(-c3cccc4nc(NC(=O)C5CC5)cn34)cc2)CC1`
< 5.30

Request the reported pIC50 associated with `N#CC1CCN(Cc2ccc(-c3cccc4nc(NC(=O)C5CC5)cn34)cc2)CC1`
< 5.30

Request the reported pIC50 associated with `Nc1cn2c(-c3ccc(CN4CCS(=O)(=O)CC4)cc3)cccc2n1`
< 5.30

Request the reported pIC50 associated with `CC1(C)CN(C(=O)c2ccc(-c3cccc4nc(NC(=O)C5CC5)cn34)cc2F)C1`
5.30 to 6.00

Request the reported pIC50 associated with `CC1(C)CN(C(=O)c2ccc(-c3cccc4nc(NC(=O)C5CC5)cn34)c(F)c2)C1`
< 5.30

Request the reported pIC50 associated with `O=C(Nc1cn2c(-c3ccc(CN4CC[C@H](O)C4)cc3)cccc2n1)C1CC1`
< 5.30

Request the reported pIC50 associated with `N#CCc1ccc(-c2cccc3nc(NC(=O)C4CC4)cn23)cc1F`
< 5.30

Request the reported pIC50 associated with `CC1(C)CN(C(=O)c2ccc(-c3cccc4nc(NC(=O)C5CC5)cn34)cc2)C1`
5.30 to 6.00

Request the reported pIC50 associated with `N#CCc1ccccc1NCc1ccc(-c2cccc3nc(NC(=O)C4CC4)cn23)cc1`
< 5.30

All figures here come from patent US10730875B2.
